- Protocol Text: Inhibition of LPS-induced mouse B cells proliferation assessed as [3H]TdR incorporation at 10 uM […]
- Assay type: functional
Measurement Label: Activity (cpm)
Write down the numeric answer in cpm and omit the unit.

Examples from the recorded data:
[[record]]
smiles_structure = "O=C(CCc1ccc(O)cc1)c1c(O)cc(O)cc1O"
measurement_unit = "cpm"
measurement = 30700

[[record]]
smiles_structure = "COc1cc(O)c(C(=O)CCc2ccc(O)cc2)c(O)c1Cc1c(OC)cc(O)c(C(=O)CCc2ccc(O)cc2)c1O"
measurement_unit = "cpm"
measurement = 36500

[[record]]
smiles_structure = "COc1c(O[C@@H]2O[C@H](CO)[C@@H](O)[C@H](O)[C@H]2O)cc(C(=O)CCc2ccc(O)cc2)cc1O[C@@H]1O[C@H](CO)[C@@H](O)[C@H](O)[C@H]1O"
measurement_unit = "cpm"
measurement = 24600

[[record]]
smiles_structure = "COc1cc(O)c(C(=O)CCc2ccc(O)cc2)c(O[C@@H]2O[C@H](CO)[C@@H](O)[C@H](O)[C@H]2OC(C)=O)c1"
measurement_unit = "cpm"
measurement = 29800

[[record]]
smiles_structure = "COc1cc(O)c(C(=O)CCc2ccc(O)cc2)c(O[C@@H]2O[C@H](CO)[C@@H](O)C(=O)[C@H]2O)c1"
measurement_unit = "cpm"
measurement = 16400


What the record says about "COc1cc(O)c(C(=O)CCc2ccc(O)cc2)c(O)c1" : Activity is 34100

What the record says about "COc1cc(O)c(C(=O)CCc2ccc(O)cc2)c(O[C@@H]2O[C@H](CO)[C@@H](O)[C@H](O)[C@H]2O)c1" : Activity is 35200

---

- Protocol Text: Inhibition of LPS-induced mouse B cells proliferation assessed as [3H]TdR incorporation at 10 uM […]
- Type: functional
Measurement Label: Activity (cpm)
Write down the numeric answer in cpm and omit the unit.

[[record]]
molecule = "O=C(CCc1ccc(O)cc1)c1c(O)cc(O)cc1O[C@@H]1O[C@H](CO)[C@@H](O)[C@H](O)[C@H]1O [PHLORIZIN]"
measurement_label = "Activity"
measurement = 30500

[[record]]
molecule = "COc1cc(O)c(C(=O)CCc2ccc(O)cc2)c2oc3cc(O)c(O)cc3c12 [PIEROTIN B]"
measurement_label = "Activity"
measurement = 3940


Kindly review the next molecule as well.
What the record says about "COc1cc(O)c(C(=O)CCc2ccc(O)c(O)c2)c(O[C@@H]2O[C@H](CO)[C@@H](O)[C@H](O)[C@H]2O)c1" : Activity is 24000

---

Listing of recorded Activity by entry.
- Protocol Text: Inhibition of concanavalin A-induced mouse T cells proliferation assessed as [3H]TdR incorporation at 1 uM […]
- Type: functional, T-cell
Write down the numeric answer in cpm and omit the unit.

Examples from the recorded data:
[[record]]
smiles_structure = "COc1cc(O)c(C(=O)CCc2ccc(O)cc2)c(O)c1Cc1c(OC)cc(O)c(C(=O)CCc2ccc(O)cc2)c1O"
measurement_label = "Activity"
measurement = 75000

[[record]]
smiles_structure = "COc1cc(O)c(C(=O)CCc2ccc(O)cc2)c(O[C@@H]2O[C@H](CO)[C@@H](O)C(=O)[C@H]2O)c1"
measurement_label = "Activity"
measurement = 26700

[[record]]
smiles_structure = "COc1cc(O)c(C(=O)CCc2ccc(O)cc2)c(O)c1"
measurement_label = "Activity"
measurement = 80300

[[record]]
smiles_structure = "O=C(CCc1ccc(O)cc1)c1c(O)cc(O)cc1O[C@@H]1O[C@H](CO)[C@@H](O)[C@H](O)[C@H]1O"
measurement_label = "Activity"
measurement = 35500

[[record]]
smiles_structure = "COc1c(O[C@@H]2O[C@H](CO)[C@@H](O)[C@H](O)[C@H]2O)cc(C(=O)CCc2ccc(O)cc2)cc1O[C@@H]1O[C@H](CO)[C@@H](O)[C@H](O)[C@H]1O"
measurement_label = "Activity"
measurement = 74100


What the record says about "COc1cc(O)c(C(=O)CCc2ccc(O)c(O)c2)c(O[C@@H]2O[C@H](CO)[C@@H](O)[C@H](O)[C@H]2O)c1" : Activity is 71400

What the record says about "COc1cc(O)c(C(=O)CCc2ccc(O)cc2)c2oc3cc(O)c(O)cc3c12" : Activity is 59000

What the record says about "COc1cc(O)c(C(=O)CCc2ccc(O)cc2)c(O[C@@H]2O[C@H](CO)[C@@H](O)[C@H](O)[C@H]2OC(C)=O)c1" : Activity is 81600

What the record says about "COc1cc(O)c(C(=O)CCc2ccc(O)cc2)c(O[C@@H]2O[C@H](CO)[C@@H](O)[C@H](O)[C@H]2O)c1" : Activity is 87200

What the record says about "O=C(CCc1ccc(O)cc1)c1c(O)cc(O)cc1O" : Activity is 75700
